Conditions: in acetone, 288.15 K
Value kind: solubility (mole fraction)
Please give only the number in your answer, with no unit.

Ask: Which solubility (mole fraction) is reported for this compound? "CC(=O)N[C@@H](C=O)[C@@H](O)[C@H](O)[C@H](O)CO"
Reply: 7.2e-05

###

Settings: in n-propanol, 308.15 K
Value kind: solubility (mole fraction)
Please give only the number in your answer, with no unit.

Ask: Which solubility (mole fraction) is reported for this compound? "CC(=O)N[C@@H](C=O)[C@@H](O)[C@H](O)[C@H](O)CO"
Reply: 0.000324

###

Conditions: in n-propanol, 313.15 K
Value kind: solubility (mole fraction)
Please give only the number in your answer, with no unit.

Ask: Which solubility (mole fraction) is reported for this compound? "CC(=O)N[C@@H](C=O)[C@@H](O)[C@H](O)[C@H](O)CO"
Reply: 0.000392
